TARGET_SYSTEM: Recombinant human MASP2 enzyme (fragment corresponding to amino acids 297-686, C-terminal His Tag) (human, UniProt O00187 297-686)
Sequence (O00187 other isoform, or with tags, fused parts or gaps limits assumed): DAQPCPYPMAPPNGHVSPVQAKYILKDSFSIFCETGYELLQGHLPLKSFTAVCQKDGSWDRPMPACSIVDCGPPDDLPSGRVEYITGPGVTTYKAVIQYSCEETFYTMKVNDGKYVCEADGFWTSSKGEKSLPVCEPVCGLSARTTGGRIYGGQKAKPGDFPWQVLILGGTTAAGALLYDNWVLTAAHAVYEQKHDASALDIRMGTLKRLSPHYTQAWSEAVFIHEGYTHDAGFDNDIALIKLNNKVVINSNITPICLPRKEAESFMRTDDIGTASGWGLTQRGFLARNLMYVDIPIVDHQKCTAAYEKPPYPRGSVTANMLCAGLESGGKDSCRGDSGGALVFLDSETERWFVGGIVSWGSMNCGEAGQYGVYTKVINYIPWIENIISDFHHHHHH
ASSAY_METHOD_TEXT: cell-based or functional assay
Numbered stars: 1 amine (or outer) side, 2 acyl side, 3 side chain; on linkers, the order of the positions; unused ones are H or OH. Bridge positions count the residues as written; N and C are the ends. Square brackets hold non-standard residues; d marks the D form. Ends that are not written are not given here. X15 = (3S)‑2‑azaspiro(4.4)nonane‑3‑carboxylic acid, O=C([C@@H]1CC2(CCCC2)CN1[*:1])[*:2]; Pro(4-spirocPr) = O=C(O)[C@@H]1CC2(CC2)CN1; Nip(3R) = O=C([C@@H]1CCCN([*:1])C1)[*:2]; Oic = O=C(O)[C@@H]1C[C@@H]2CCCC[C@@H]2N1; βPro(3R) = O=C([C@@H]1CCN([*:1])C1)[*:2]; tBuAla = CC(C)(C)C[C@H](N)C(=O)O; Pen = CC(C)(S)[C@H](N)C(=O)O; Orn = NCCC[C@H](N)C(=O)O; Sar = CNCC(=O)O
Please respond with reported human MASP2 IC50 for every item in the list.
One number for each entry, in nM.

Worked examples, 5 binders total:
>>> numeric_readout("{(2S)‑2‑(morpholin-4-yl)propanoic acid}-ICSRSLP[Oic]I[Pen]IPD-OH (disulfide 2-10) [((2S)-2-(morpholin-4-yl)propanoic acid)-IC+SRSLP-(Oic)-I-(Pen)+IPD-OH]")
170
>>> numeric_readout("[Sar]ICSRSLP[Oic]I[Pen]IP[βPro(3R)]-OH (disulfide 3-11; N-terminus assumed; SMILES CC[C@H](C)[C@H](NC(=O)CNC)C(=O)N[C@H]1CSSC(C)(C)[C@@H](C(=O)N[C@H](C(=O)N2CCC[C@H]2C(=O)N2CC[C@@H](C(=O)O)C2)[C@@H](C)CC)NC(=O)[C@H]([C@@H](C)CC)NC(=O)[C@@H]2C[C@@H]3CCCC[C@@H]3N2C(=O)[C@@H]2CCCN2C(=O)[C@H](CC(C)C)NC(=O)[C@H](CO)NC(=O)[C@H](CCCNC(=N)N)NC(=O)[C@H](CO)NC1=O) [((N-Me)G)-IC+SRSLP-(Oic)-I-(Pen)+IP-((R)-Pyrrolidine-3-carboxylic acid)-OH]")
166
>>> numeric_readout("[dA]ICSRS[tBuAla]P[Pro(4-spirocPr)]I[Pen]IPD-OH (disulfide 3-11; N-terminus assumed; SMILES CC[C@H](C)[C@H](NC(=O)[C@@H](C)N)C(=O)N[C@H]1CSSC(C)(C)[C@@H](C(=O)N[C@H](C(=O)N2CCC[C@H]2C(=O)N[C@@H](CC(=O)O)C(=O)O)[C@@H](C)CC)NC(=O)[C@H]([C@@H](C)CC)NC(=O)[C@@H]2CC3(CC3)CN2C(=O)[C@@H]2CCCN2C(=O)[C@H](CC(C)(C)C)NC(=O)[C@H](CO)NC(=O)[C@H](CCCNC(=N)N)NC(=O)[C@H](CO)NC1=O) [aIC+SRS-((tBu)A)-P-((6S)-5-Azaspiro[2.4]heptane-6-carboxylic acid)-I-(Pen)+IPD-OH]")
22
>>> numeric_readout("[Nip(3R)]ICSRSLP[Oic]I[Pen]IPD-OH (disulfide 3-11; N-terminus assumed; SMILES CC[C@H](C)[C@H](NC(=O)[C@@H]1CCCNC1)C(=O)N[C@H]1CSSC(C)(C)[C@@H](C(=O)N[C@H](C(=O)N2CCC[C@H]2C(=O)N[C@@H](CC(=O)O)C(=O)O)[C@@H](C)CC)NC(=O)[C@H]([C@@H](C)CC)NC(=O)[C@@H]2C[C@@H]3CCCC[C@@H]3N2C(=O)[C@@H]2CCCN2C(=O)[C@H](CC(C)C)NC(=O)[C@H](CO)NC(=O)[C@H](CCCNC(=N)N)NC(=O)[C@H](CO)NC1=O) [((R)-Piperidine-3-Carboxylic Acid)-IC+SRSLP-(Oic)-I-(Pen)+IPD-OH]")
110
>>> numeric_readout("[Sar]FCTRK[tBuAla][Pen]YPD-OH (disulfide 3-8; N-terminus assumed; SMILES CNCC(=O)N[C@@H](Cc1ccccc1)C(=O)N[C@H]1CSSC(C)(C)[C@@H](C(=O)N[C@@H](Cc2ccc(O)cc2)C(=O)N2CCC[C@H]2C(=O)N[C@@H](CC(=O)O)C(=O)O)NC(=O)[C@H](CC(C)(C)C)NC(=O)[C@H](CCCCN)NC(=O)[C@H](CCCNC(=N)N)NC(=O)[C@H]([C@@H](C)O)NC1=O) [((N-Me)G)-FC+TRK-((tBu)A)-(Pen)+YPD-OH]")
1000

Give me human MASP2 IC50 for each of these binders, listed below.
1. [Orn]ICSRSLP[Oic]I[Pen]IPD-OH (disulfide 3-11; N-terminus assumed; SMILES CC[C@H](C)[C@H](NC(=O)[C@@H](N)CCCN)C(=O)N[C@H]1CSSC(C)(C)[C@@H](C(=O)N[C@H](C(=O)N2CCC[C@H]2C(=O)N[C@@H](CC(=O)O)C(=O)O)[C@@H](C)CC)NC(=O)[C@H]([C@@H](C)CC)NC(=O)[C@@H]2C[C@@H]3CCCC[C@@H]3N2C(=O)[C@@H]2CCCN2C(=O)[C@H](CC(C)C)NC(=O)[C@H](CO)NC(=O)[C@H](CCCNC(=N)N)NC(=O)[C@H](CO)NC1=O) [(Orn)-IC+SRSLP-(Oic)-I-(Pen)+IPD-OH]
2. [Sar]ICSRS[(2S)‑2‑Amino‑5‑methyl‑hexanoic acid]PPI[Pen]IPD-OH (disulfide 3-11) [((N-Me)G)-IC+SRS-((2S)-2-Amino-5-methyl-hexanoic acid)-PPI-(Pen)+IPD-OH]
3. [Sar]ICSRS[tBuAla]P[X15]I[Pen]IPD-OH (disulfide 3-11; N-terminus assumed; SMILES CC[C@H](C)[C@H](NC(=O)CNC)C(=O)N[C@H]1CSSC(C)(C)[C@@H](C(=O)N[C@H](C(=O)N2CCC[C@H]2C(=O)N[C@@H](CC(=O)O)C(=O)O)[C@@H](C)CC)NC(=O)[C@H]([C@@H](C)CC)NC(=O)[C@@H]2CC3(CCCC3)CN2C(=O)[C@@H]2CCCN2C(=O)[C@H](CC(C)(C)C)NC(=O)[C@H](CO)NC(=O)[C@H](CCCNC(=N)N)NC(=O)[C@H](CO)NC1=O) [((N-Me)G)-IC+SRS-((tBu)A)-P-((3S)-2-azaspiro[4.4]nonane-3-carboxylic acid)-I-(Pen)+IPD-OH]
4. [Nip(3R)]ICSRSLP[Oic]I[Pen]I-OH (disulfide 3-11; N-terminus assumed; SMILES CC[C@H](C)[C@H](NC(=O)[C@H]1NC(=O)[C@H]([C@@H](C)CC)NC(=O)[C@@H]2C[C@@H]3CCCC[C@@H]3N2C(=O)[C@@H]2CCCN2C(=O)[C@H](CC(C)C)NC(=O)[C@H](CO)NC(=O)[C@H](CCCNC(=N)N)NC(=O)[C@H](CO)NC(=O)[C@@H](NC(=O)[C@@H](NC(=O)[C@@H]2CCCNC2)[C@@H](C)CC)CSSC1(C)C)C(=O)O) [((R)-Piperidine-3-carboxylic acid)-IC+SRSLP-(Oic)-I-(Pen)+I-OH]

Result string:
[110, 70, 261, 200]

Query string: I would be grateful if you could share the reported human MASP2 IC50 for [Sar]ICSRS[tBuAla]PPI[Pen]IP[Sar][Sar][Sar]-OH (disulfide 3-11; N-terminus assumed; SMILES CC[C@H](C)[C@H](NC(=O)CNC)C(=O)N[C@H]1CSSC(C)(C)[C@@H](C(=O)N[C@H](C(=O)N2CCC[C@H]2C(=O)N(C)CC(=O)N(C)CC(=O)N(C)CC(=O)O)[C@@H](C)CC)NC(=O)[C@H]([C@@H](C)CC)NC(=O)[C@@H]2CCCN2C(=O)[C@@H]2CCCN2C(=O)[C@H](CC(C)(C)C)NC(=O)[C@H](CO)NC(=O)[C@H](CCCNC(=N)N)NC(=O)[C@H](CO)NC1=O) [((N-Me)G)-IC+SRS-((tBu)A)-PPI-(Pen)+IP-((N-Me)G)-((N-Me)G)-((N-Me)G)-OH] .
Result string: 47

Data origin, for the record: patent US20210246166A1
